B1: Osa-1-4 twister ribozyme (parent)
chain: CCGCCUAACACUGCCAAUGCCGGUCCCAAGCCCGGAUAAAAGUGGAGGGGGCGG

Variants of: B1
Experiment: self-cleavage, relative activity (ratio to wild type); higher = more cleavage; co-transcriptional
Each entry gets rule not met if its self-cleavage stays under 0.07, and rule met if its self-cleavage is 0.07 or above.

{"variant id": "C52U G34C", "answer label": "rule met"}
{"variant id": "C20U G35A", "answer label": "rule met"}
{"variant id": "A28G G44U", "answer label": "rule met"}
{"variant id": "G45A G49C", "answer label": "rule not met"}
{"variant id": "A16G G22C", "answer label": "rule met"}
{"variant id": "A17G G35U", "answer label": "rule met"}
{"variant id": "A46U A8C", "answer label": "rule not met"}
{"variant id": "C26G G45A", "answer label": "rule not met"}
{"variant id": "A16U A39G", "answer label": "rule met"}
{"variant id": "G13U G47U", "answer label": "rule not met"}
{"variant id": "A17G C14A", "answer label": "rule met"}
{"variant id": "C32U C52G", "answer label": "rule met"}
{"variant id": "C9A G13A", "answer label": "rule not met"}
{"variant id": "C32A G42U", "answer label": "rule not met"}
{"variant id": "A36U A40U", "answer label": "rule met"}
{"variant id": "C15G C27U", "answer label": "rule met"}
{"variant id": "A17G C9G", "answer label": "rule met"}
{"variant id": "A28G A41C", "answer label": "rule met"}
{"variant id": "G48U U12C", "answer label": "rule not met"}
{"variant id": "C26G G49A", "answer label": "rule not met"}
{"variant id": "A36C G44A", "answer label": "rule met"}
{"variant id": "G23C U18A", "answer label": "rule not met"}
{"variant id": "C25U U18G", "answer label": "rule met"}
{"variant id": "C20G G48C", "answer label": "rule not met"}
{"variant id": "A40U C25U", "answer label": "rule met"}
{"variant id": "A10G G13A", "answer label": "rule met"}
{"variant id": "A10G U24G", "answer label": "rule not met"}
{"variant id": "C9U G34U", "answer label": "rule met"}
{"variant id": "G19C G23U", "answer label": "rule not met"}
{"variant id": "C26U G53U", "answer label": "rule met"}
{"variant id": "A39U U37A", "answer label": "rule met"}
{"variant id": "A38C U43C", "answer label": "rule met"}
{"variant id": "C26G G19A", "answer label": "rule met"}
{"variant id": "C52A G42U", "answer label": "rule met"}
{"variant id": "A28G G53U", "answer label": "rule met"}
{"variant id": "C25G G22C", "answer label": "rule not met"}
{"variant id": "A29C G53C", "answer label": "rule not met"}
{"variant id": "A7G U24A", "answer label": "rule met"}
{"variant id": "C20A G53A", "answer label": "rule met"}
{"variant id": "A41U G22U", "answer label": "rule met"}
{"variant id": "A40G C31U", "answer label": "rule met"}
